Test system: MS2 coat protein
Experiment: apparent KD of MS2 coat protein; higher = weaker reporter binding
Settings: Eterna round: R107; input ligand: theophylline 2 mM
I'd appreciate it if you could supply apparent KD of MS2 coat protein values for the items below.
Answers are plain numbers, in nM.

>  <SEQUENCE_STRING>
AGCCACUCGAGUGAUCCUCACGAGUGGCUACGAGGACCGGUACGGCCGCCACUCGAAUUAACAUGAGGAUCACCCAUGUAAUCUC [Brourdmod06]

>  <apparent KD of MS2 coat protein, nM>
344

$$$$
>  <SEQUENCE_STRING>
GCAUCCUAGUCGGCCGCCACUGCGAAUAGGUCCUGAGUGAUCUAACAUGAGGAUCACCCAUGUAGCAGGACCGGGACUAGGAUGC [(Trp1)-(TM)''-(TM)'-(Ms2)-(Trp2)_Design5]

>  <apparent KD of MS2 coat protein, nM>
23

$$$$

--- query ---
### Prompt Please report apparent KD of MS2 coat protein for the following sequence: UGGCGAGAAGGAAGGAGCGUCAGCUGAGUCACAUGAGGAUCACCCAUGUCGCACAUAGUGUGACAGGUAGGUCGCCUUCUGCCCU [Beinmain]
### Response 239

====

I'd appreciate it if you could supply apparent KD of MS2 coat protein values for the items below.
System: MS2 coat protein
Test: apparent KD of MS2 coat protein; designed switch direction (-1 OFF switch, 1 ON switch): -1; higher = weaker reporter binding
Settings: Eterna round: R95; input ligand: microRNA oligo, concentration not stated
Give bare numbers, in µM.

Example entries begin here.
>  <SEQUENCE_STRING>
CCGUGGCAAGGAUAUACGUAGGAGAGGAAGGCAAGAGAAGGACAUGAGGAUCACCCAUGUAGAAGGUGCAGAUC [JR_Exclu2_Sub030] (puzzle: Exclusion 2)

>  <READOUT_NAME>
apparent KD of MS2 coat protein

>  <UNITS_TEXT>
µM

>  <VAL>
0.0483

$$$$
>  <SEQUENCE_STRING>
GAUGUGGGUUUUCAGAGUAACAUGAGGAUCACCCAUGUAGAAGUUGAAGGUAUCAAGCGAAUGGCUCGUCAUAUGUG [JR_SV3TOV1_Sub050] (puzzle: Sensor v3, turn-off variant 1)

>  <READOUT_NAME>
apparent KD of MS2 coat protein

>  <UNITS_TEXT>
µM

>  <VAL>
0.239

$$$$
>  <SEQUENCE_STRING>
AGUACUAUCACGAAAGUGUUAGUACAAUAAGCUUGUGAAACAUGAGGAUCACCCAUGUCCUCAUAAGCUCGUCUUAU [salish99_TOv2_r3_019] (puzzle: Sensor v3, turn-off variant 2)

>  <READOUT_NAME>
apparent KD of MS2 coat protein

>  <UNITS_TEXT>
µM

>  <VAL>
0.868

$$$$
>  <SEQUENCE_STRING>
CCUUUGUCAGGAUAUCAGAACACGCUCCUAGGGAGCGCAAAUGAGAAGGGACAUGAGGAUCACCCAUGUAAAGA [Arisesat] (puzzle: Exclusion 4)

>  <READOUT_NAME>
apparent KD of MS2 coat protein

>  <UNITS_TEXT>
µM

>  <VAL>
0.0416

$$$$

--- query ---
### Prompt Please report apparent KD of MS2 coat protein for the following sequence: CCGGAAGUACAGGAUAUAGGAGUCGAUAGACUCCUAGAAGGGUAUACAUGAGGAUCACCCAUGUGUCCUACCGG [Fiskers Ex 6 - 71] (puzzle: Exclusion 6)
### Response 0.0236

====

System: MS2 coat protein
Assay: apparent KD of MS2 coat protein; designed switch direction (-1 OFF switch, 1 ON switch): -1; higher = weaker reporter binding
Conditions: input ligand: none
READOUT_NAME: apparent KD of MS2 coat protein (nM)
Numbers only, in nM.

Example entries begin here.
>  <SEQUENCE_STRING>
CGAUGCUCGUGGCCACAUGAGGAUCACCCAUGUCGAGUUAGCGAGGAUAUCGGUAGCACAUAUCACGAGAAGGCGCGAACCUGA [Ex NG3 #29] (Eterna round: R96, puzzle: Exclusion NG 3)

>  <TESTED_SYSTEM>
MS2 coat protein

>  <UNITS_TEXT>
nM

>  <VAL>
12

$$$$
>  <SEQUENCE_STRING>
UCUGGGUCUGUGAGGAUAUCGGGCCCGAAAGGGCCCGAGAAGGCACAUGAGGAUCACCCAUGUAAGGGCUCGGG [-38.4, -36.3 kcal, A 23%, 0-7bis] (Eterna round: R97, puzzle: Brourd's mod of Exclusion 4)

>  <TESTED_SYSTEM>
MS2 coat protein

>  <UNITS_TEXT>
nM

>  <VAL>
25

$$$$
>  <SEQUENCE_STRING>
UCACGGGACUGAGGAUAUACAUCAACCAUGGUUGUAGAAGGCAGAAGGUUGGAUCAUACACUAAACAUGAGGAUCACCCAUGUU [JR_ExcNG1_Sub029] (Eterna round: R96, puzzle: Exclusion NG 1)

>  <TESTED_SYSTEM>
MS2 coat protein

>  <UNITS_TEXT>
nM

>  <VAL>
21.6

$$$$
>  <SEQUENCE_STRING>
AAGACACAUGAGGAUCACCCAUGUGAGGAUAUUUGAUGCUGAGCGUAAGCUUAGUAUCAGAGAAGGUACAUAGG [Salishxclusion 10 - Jieux - Exclusion 1] (Eterna round: R97, puzzle: Exclusion 1)

>  <TESTED_SYSTEM>
MS2 coat protein

>  <UNITS_TEXT>
nM

>  <VAL>
58.9

$$$$
>  <SEQUENCE_STRING>
AGCUAGUGCCGAGGAUAUACAUGAGGAUCACCCAUGUAGCCGUGAGGCUUUGUCUCACGGGAUAUGUAGAAGGCGGCGUUGGCA [JL ENG2 1.53] (Eterna round: R96, puzzle: Exclusion NG 2)

>  <TESTED_SYSTEM>
MS2 coat protein

>  <UNITS_TEXT>
nM

>  <VAL>
18.3

$$$$
>  <SEQUENCE_STRING>
CUUUUGUGAGGAUAUUAGUAGUAAAUAAAUAAAAUUAUUACUGAGAAGGCACAUGAGGAUCACCCAUGUUCCUU [Salish 062 v20] (Eterna round: R97, puzzle: Exclusion 4)

>  <TESTED_SYSTEM>
MS2 coat protein

>  <UNITS_TEXT>
nM

>  <VAL>
17

$$$$

For each of the sequences below, state apparent KD of MS2 coat protein.
1. CCCACGCACCAAGGAUAUGUUCCGCACAUGAGGAUCACCCAUGUGGCCAGCGAUUCUGUGUGAGAACAGAAGGUGGUUAUGUUA [Eternabot solution 41] (Eterna round: R96, puzzle: Exclusion NG 2)
2. CCUCGACAUGAGGAUCACCCAUGUGAGGAUAUGACCUUAAAAGCGUGAGCAGUUUCUAUCAGAAGGCGCGUAGG [salish99_ex1_r4_071] (Eterna round: R97, puzzle: Exclusion 1)
3. AAAGAAACAUGAGGAUCACCCAUGUCUGAUCCAAUGUUUAGUCAGGAUAUGCGUCCGACUUCGGAGCAGAAGGGAUACAGGUAG [Anlaanma] (Eterna round: R96, puzzle: Exclusion NG 3)

### Response
[219, 16, 356]

====

System: MS2 coat protein
Test: apparent KD of MS2 coat protein; designed switch direction (-1 OFF switch, 1 ON switch): -1; higher = weaker reporter binding
Settings: Eterna round: R95; input ligand: FMN 200 uM
Assign rule met whenever apparent KD of MS2 coat protein does not fall below 20 nM; assign rule not met whenever it does.

Before answering, review these 6 worked examples.
>  <SEQUENCE_STRING>
AGUACUAACACGGCAGUGUUAGUACAAUAAGCUUGUGAAACAUGAGGAUCACCCAUGUCCUCAUAAGCUCGUCUUAU [salish99_TOv2_r3_065] (puzzle: Sensor v3, turn-off variant 2)

>  <GROUP_LABEL>
rule not met

$$$$
>  <SEQUENCE_STRING>
GAUAAGGUAGGAUAUACGAAUAAAUAGGGUAGAAUAAUAACACAUGAGGAUCACCCAUGUAGAAGGACCAAUAG [Mat - Exclusion 2 - Mod of my Tesla design - D26] (puzzle: Exclusion 2)

>  <GROUP_LABEL>
rule met

$$$$
>  <SEQUENCE_STRING>
UAAUGCAAGUAAAGAUCCUACAUGAGGAUCACCCAUGUGCUCGUCUUAUAAAGUACUAUCACGAAAGUGAUAGUACA [Mat - Sensor v3 - turn-off var 1 - Eli Mod - D83] (puzzle: Sensor v3, turn-off variant 1)

>  <GROUP_LABEL>
rule met

$$$$
>  <SEQUENCE_STRING>
AAAUAACAAGCGAGAUCCUACAUGAGGAUCACCCAUGUGCUCGUCUUAAGAAGUACUAUCACGAAAGUGAUAGUACA [Mat - Sensor v3 - turn-off var 1 - Eli Mod - D68] (puzzle: Sensor v3, turn-off variant 1)

>  <GROUP_LABEL>
rule not met

$$$$
>  <SEQUENCE_STRING>
CAUUCGCAAGGAUAUUAUUGCAGUGACAUGAGGAUCACCCAUGUGUUCGUCAUGCAUCGAUGAGAAGGUGCAAGAC [Orater] (puzzle: Exclusion 5)

>  <GROUP_LABEL>
rule met

$$$$
>  <SEQUENCE_STRING>
GCUUGGCGAGGAUAUACAUGAGGAUCACCCAUGUGAGAGAAAAAAGUGAGGAAGAAAAGUAGAAGGCGCUGAGG [Mat - Exclusion 3 - Mod of Salish D57] (puzzle: Exclusion 3)

>  <GROUP_LABEL>
rule met

$$$$

### Prompt Reported apparent KD of MS2 coat protein reaches at least 20 nM for AGAAGUAGUACCCGAUCCUACAUGAGGAUCACCCAUGUAGCUAGACGUGCACGCGAUGCUCGUCAGACUACCAGAUG [salish99_TOv1_r3_032] (puzzle: Sensor v3, turn-off variant 1) ?
### Response rule met

### Prompt Reported apparent KD of MS2 coat protein reaches at least 20 nM for AGUACUAACACGGGUGUGUUAGUACAAUAAGCUUGUGAAACAUGAGGAUCACCCAUGUCCUCAUAAGCUCGUCUUAU [salish99_TOv2_r3_075] (puzzle: Sensor v3, turn-off variant 2) ?
### Response rule not met

### Prompt Reported apparent KD of MS2 coat protein reaches at least 20 nM for CUAGACCGAGGAUAUAUUAUGUGAAACAUGAGGAUCACCCAUGUAAUAUGAUGGAUGUAAAUAGAAGGCGGUCUAG [Mat - Exclusion 5 - JL mod - D29] (puzzle: Exclusion 5) ?
### Response rule met
